test system: rat and mouse 2-year carcinogenicity bioassay, tumor evidence; test: Consolidated carcinogenicity assay summary data; conditions: Route (rodents): Inhalation
Inconclusive results are not listed. Calls of active or inactive are those of the source. How the calls were made is not given here.
readout_kind: carcinogen call

// below: answered molecules
C=CC(=C)C :: active; clear evidence
ClCCl :: active; some evidence
FC(F)=C(F)F :: active; clear evidence
CCCCOCCO :: active; no evidence
CCC1CO1 (configuration not stated) :: active; clear evidence

Please fill in: carcinogen call reported for CC1CO1 (configuration not stated) = active; some evidence

Please fill in: carcinogen call reported for "CCCBr" = active; some evidence

* * *

System: rat and mouse 2-year carcinogenicity bioassay, tumor evidence
Test: Consolidated carcinogenicity assay summary data
Details: Route (rodents): Gavage
From the text: Cancer Evaluation Criteria The National Toxicology Program describes the results of individual experiments on a chemical agent and notes the strength of the evidence for conclusions regarding each study. […] Other organizations, such as the International Agency for Research on Cancer, assign a strength of evidence for conclusions based on an examination of all available evidence, including animal studies such as those conducted by the NTP, epidemiologic studies, and estimates of exposure. […]
Records with an inconclusive call do not appear. Active and inactive are the calls of the source. No rule for the calls is given here.
readout_kind: carcinogen call

// below: answered molecules
ClCC(Cl)Cl :: active; no evidence
CC(C)=C1CC[C@@H](C)CC1=O :: active; no evidence
CCCN(CCC)S(=O)(=O)c1ccc(C(=O)O)cc1 :: active; no evidence
C=CCN=C=S :: active; clear evidence

Please fill in: carcinogen call reported for "C=CC(=C)CCC=C(C)C" = active; clear evidence

* * *

test system: rat and mouse 2-year carcinogenicity bioassay, tumor evidence; test: Consolidated carcinogenicity assay summary data; conditions: Route (rodents): Dosed feed
Inconclusive results are not listed. Calls of active or inactive are those of the source. How the calls were made is not given here.
readout_kind: carcinogen call

// below: answered molecules
Cc1ccccc1N :: active; clear evidence
COC(=O)C(c1ccccc1)C1CCCCN1 (stereo not given) :: active; no evidence
COc1ccccc1N :: active; clear evidence
O=C1CN(N=Cc2ccc([N+](=O)[O-])o2)C(=O)N1 :: active; some evidence
Oc1ccc2ccccc2c1N=Nc1ccccc1 :: active; clear evidence
Nc1ccc2c(c1)C(=O)c1ccccc1C2=O :: active; clear evidence

Please fill in: carcinogen call reported for "O=[N+]([O-])c1ccc2c3c(cccc13)CC2" = active; clear evidence

Please fill in: carcinogen call reported for "ClC(Cl)=C(c1ccc(Cl)cc1)c1ccc(Cl)cc1" = active; no evidence

Please fill in: carcinogen call reported for "O=c1c(O)c(-c2ccc(O)c(O)c2)oc2cc(O)cc(O)c12" = active; some evidence

Please fill in: carcinogen call reported for "O=C(O)c1ccc([N+](=O)[O-])cc1" = active; no evidence

Please fill in: carcinogen call reported for "CCOc1ccc(NC(C)=O)cc1N" = active; no evidence

Please fill in: carcinogen call reported for "Brc1c(Br)c(Br)c(Oc2c(Br)c(Br)c(Br)c(Br)c2Br)c(Br)c1Br" = active; some evidence

Please fill in: carcinogen call reported for "Cc1cnc[nH]1" = active; no evidence

Please fill in: carcinogen call reported for "Nc1ccc(O)c([N+](=O)[O-])c1" = active; clear evidence

Please fill in: carcinogen call reported for "CCNC(=S)NCC" = active; clear evidence

Please fill in: carcinogen call reported for "[O-]/[N+](=N\O)c1ccccc1" = active; clear evidence

Please fill in: carcinogen call reported for "C/C=C(/C)C(=O)O[C@H]1CCN2CC=C(COC(=O)[C@@](O)([C@@H](C)OC)C(C)(C)O)[C@H]12" = active; clear evidence

Please fill in: carcinogen call reported for "O=C1c2ccccc2-c2ccc3c4c(ccc1c24)-c1ccccc1C3=O" = active; no evidence

* * *

tested on: rat and mouse 2-year carcinogenicity bioassay, tumor evidence; assay: Consolidated carcinogenicity assay summary data; settings: Route (rodents): Inhalation
Records with an inconclusive call do not appear. Activity calls are given as the source filed them. How the calls were made is not given here.
readout_kind: carcinogen call

// below: answered compounds
FC(F)(F)c1ccc(Cl)cc1 :: active; some evidence
C=C(C)c1ccccc1 :: active; some evidence
C[N+](=O)[O-] :: active; no evidence
[Co] :: active; clear evidence
CC(C)CON=O :: active; clear evidence
ClC(Cl)=C(Cl)Cl :: active; clear evidence
O.O.O.O.O.O.O.O=S(=O)([O-])[O-].[Co+2] :: active; some evidence
C#CCO :: active; some evidence
C1CCC2CCCCC2C1 (stereo not given) :: active; clear evidence
C=CC(=C)Cl :: active; clear evidence

Please fill in: carcinogen call reported for "C1CCOC1" = active; some evidence

Please fill in: carcinogen call reported for "c1ccc2c(c1)CCCC2" = active; some evidence

Please fill in: carcinogen call reported for "CC(=O)C(C)=O" = active; some evidence

Please fill in: carcinogen call reported for "O=[O+][O-]" = active; no evidence

Please fill in: carcinogen call reported for "c1ccc2ccccc2c1" = active; clear evidence

* * *

tested on: rat and mouse 2-year carcinogenicity bioassay, tumor evidence; assay: Consolidated carcinogenicity assay summary data; details: Route (rodents): Dosed feed
Records with an inconclusive call do not appear. Activity calls are given as the source filed them. How the calls were made is not given here.
readout_kind: carcinogen call

// below: answered compounds
c1ccc(N=Nc2ccccc2)cc1 :: active; clear evidence
N=C1C=CC(=C(c2ccc(N)cc2)c2ccc(N)cc2)C=C1 :: active; clear evidence
O=Nc1ccc(NO)cc1 :: active; no evidence
ClC1=C(Cl)C2(Cl)C3C(Cl)C(Cl)CC3C1(Cl)C2(Cl)Cl (configuration not stated) :: active; no evidence
Cc1ccc2c(c1[N+](=O)[O-])C(=O)c1ccccc1C2=O :: active; clear evidence
Nc1cccc2c(N)cccc12 :: active; no evidence
CCCN(CCC)c1c([N+](=O)[O-])cc(C(F)(F)F)cc1[N+](=O)[O-] :: active; no evidence
Nc1ccccc1C(=O)OCC=Cc1ccccc1 :: active; clear evidence
O=C1C2(Cl)C3(Cl)C4(Cl)C(Cl)(Cl)C5(Cl)C3(Cl)C1(Cl)C5(Cl)C24Cl (configuration not stated) :: active; clear evidence
C=C(Cl)CSC(=S)N(CC)CC :: active; clear evidence

Please fill in: carcinogen call reported for "Cc1ccc(N=Nc2c(O)ccc3ccccc23)c([N+](=O)[O-])c1" = active; some evidence

Please fill in: carcinogen call reported for "Nc1ncc([N+](=O)[O-])s1" = active; clear evidence

* * *

test system: rat and mouse 2-year carcinogenicity bioassay, tumor evidence; experiment: Consolidated carcinogenicity assay summary data; settings: Route (rodents): Dosed feed
Records with an inconclusive call do not appear. Activity calls are given as the source filed them. How the calls were made is not given here.
readout_kind: carcinogen call

// below: answered molecules
CCOc1ccc(NC(C)=O)cc1[N+](=O)[O-] :: active; no evidence
Nc1c(Br)cc(Br)c2c1C(=O)c1ccccc1C2=O :: active; clear evidence
S=C1NCCN1 :: active; clear evidence
Cc1cc(C)c(N)cc1C :: active; clear evidence
COP(=O)(OC)O/C(=C\Cl)c1cc(Cl)c(Cl)cc1Cl :: active; no evidence
O=Nc1ccc(Nc2ccccc2)cc1 :: active; clear evidence

Please fill in: carcinogen call reported for "Nc1cc(S(=O)(=O)[O-])cc2cc(S(=O)(=O)[O-])c(N=Nc3ccc(-c4ccc(N=Nc5c(S(=O)(=O)[O-])cc6cc(S(=O)(=O)[O-])cc(N)c6c5[O-])c([O-])c4)cc3[O-])c([O-])c12.[Cu+2].[Cu+2].[Na+].[Na+].[Na+].[Na+]" = active; some evidence

* * *

Tested on: rat and mouse 2-year carcinogenicity bioassay, tumor evidence
Test: Consolidated carcinogenicity assay summary data
Details: Route (rodents): Dosed feed
Text: Cancer Evaluation Criteria The National Toxicology Program describes the results of individual experiments on a chemical agent and notes the strength of the evidence for conclusions regarding each study. […] Other organizations, such as the International Agency for Research on Cancer, assign a strength of evidence for conclusions based on an examination of all available evidence, including animal studies such as those conducted by the NTP, epidemiologic studies, and estimates of exposure. […]
Records with an inconclusive call do not appear. Calls of active or inactive are those of the source. No rule for the calls is given here.
readout_kind: carcinogen call

Cc1ccc(N)cc1N :: active; clear evidence
Nc1ccc(N=Nc2ccccc2)c(N)n1 :: active; clear evidence
Cc1ccc2c(c1N)C(=O)c1ccccc1C2=O :: active; clear evidence
